system: M. mycetomatis genome strain MM55; assay: CLSI M38-A2 based in vitro susceptibility screening (XTT or resazurin), growth at fixed concentration; assay type: cell-based, Madurella mycetomatis; conditions: Madurella mycetomatis, 25 uM, mean of three replicates; read-out: Percentage survival at 25um, 25 uM mean
The following molecules are listed with their measured activity at 25 µM values.
A number alone suffices; assume %.

Answered cases to consult:
>  <molecule>
CS(=O)(=O)c1ccc(Oc2ccc(Cl)cc2)cc1

>  <activity at 25 µM [%]>
85.3

$$$$
>  <molecule>
CCOC(=O)/C=C/[C@H](C[C@@H]1CCNC1=O)NC(=O)[C@H](CC)n1cccc(NC(=O)c2cc(C)on2)c1=O

>  <activity at 25 µM [%]>
92.1

$$$$
>  <molecule>
O=C(O)c1cc(-c2ccccc2)nc2ccccc12

>  <activity at 25 µM [%]>
91.7

$$$$
>  <molecule>
O=C(Nc1nnc(-c2ccc(Cl)cc2)o1)c1nc2ccccc2s1

>  <activity at 25 µM [%]>
111

$$$$
>  <molecule>
Cc1cccc(C)c1C(=O)Nc1nc(-c2ccccn2)cc2ccccc12

>  <activity at 25 µM [%]>
77.1

$$$$
>  <molecule>
Cc1ccccc1NC(=O)Nc1cccc([N+](=O)[O-])c1

>  <activity at 25 µM [%]>
89.2

$$$$

Now for the molecule whose activity at 25 µM we want.
What the record says about CCc1nc(N)nc(N)c1C#CCc1ccccc1 : activity at 25 µM is 92.3
